# subject.of.test: Kdr (Homo sapiens)
# Construct: Kinases are expressed as either kinase domains or full length constructs; made in house
# Sequence (P35968 20-1356, species assumed): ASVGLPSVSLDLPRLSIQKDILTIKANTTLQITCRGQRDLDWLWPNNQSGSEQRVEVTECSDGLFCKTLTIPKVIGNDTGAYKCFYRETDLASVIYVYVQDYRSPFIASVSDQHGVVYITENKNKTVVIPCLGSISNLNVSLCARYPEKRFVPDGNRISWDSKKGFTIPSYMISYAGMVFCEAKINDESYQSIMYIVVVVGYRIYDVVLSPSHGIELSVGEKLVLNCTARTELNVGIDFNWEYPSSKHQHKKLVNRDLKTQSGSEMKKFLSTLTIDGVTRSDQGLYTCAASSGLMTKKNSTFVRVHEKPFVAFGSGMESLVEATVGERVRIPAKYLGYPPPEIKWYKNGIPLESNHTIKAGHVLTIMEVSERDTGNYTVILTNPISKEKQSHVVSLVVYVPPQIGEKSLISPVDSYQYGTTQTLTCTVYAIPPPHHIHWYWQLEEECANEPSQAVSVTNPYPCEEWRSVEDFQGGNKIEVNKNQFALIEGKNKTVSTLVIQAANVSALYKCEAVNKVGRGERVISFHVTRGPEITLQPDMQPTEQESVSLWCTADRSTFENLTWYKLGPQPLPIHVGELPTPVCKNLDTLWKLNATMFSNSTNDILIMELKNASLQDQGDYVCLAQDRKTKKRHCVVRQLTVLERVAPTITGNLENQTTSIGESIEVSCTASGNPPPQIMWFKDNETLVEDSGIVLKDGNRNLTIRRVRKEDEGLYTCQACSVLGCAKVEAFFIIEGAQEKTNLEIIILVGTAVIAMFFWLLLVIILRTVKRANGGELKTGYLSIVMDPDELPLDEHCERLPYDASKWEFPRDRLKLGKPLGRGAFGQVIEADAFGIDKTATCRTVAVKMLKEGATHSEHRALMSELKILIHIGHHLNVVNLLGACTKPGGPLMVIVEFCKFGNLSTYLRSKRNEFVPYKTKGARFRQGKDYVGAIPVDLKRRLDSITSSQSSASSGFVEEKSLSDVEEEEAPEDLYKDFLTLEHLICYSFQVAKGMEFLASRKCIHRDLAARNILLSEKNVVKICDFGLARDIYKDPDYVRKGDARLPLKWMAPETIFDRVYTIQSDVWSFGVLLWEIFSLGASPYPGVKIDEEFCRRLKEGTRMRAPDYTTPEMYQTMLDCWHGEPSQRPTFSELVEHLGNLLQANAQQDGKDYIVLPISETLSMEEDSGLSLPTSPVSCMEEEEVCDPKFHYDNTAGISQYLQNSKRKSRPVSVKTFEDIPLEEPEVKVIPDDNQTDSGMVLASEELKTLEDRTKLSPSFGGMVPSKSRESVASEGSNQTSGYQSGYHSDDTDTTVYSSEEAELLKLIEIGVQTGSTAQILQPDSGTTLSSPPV
# experimental.protocol: Kinase inhibition assay (33P transfer), Kdr
# Assay type: biochemical
# condition.details: Table 3; read-out: KDR-1
pIC50: −log10 of the molar value.
test.readout: pIC50

Worked examples follow.
For "COc1cc(Nc2ncnc(-n3cccc3)n2)cc(OC)c1OC" , write its pIC50. > 5.91

Write down pIC50 measured for item "COc1cc(Nc2ncnc(Nc3cccc4ccccc34)n2)cc(OC)c1OC" > 6.00

Report pIC50 for "COc1cc(Nc2ncnc(Nc3ccc(C)c(NS(C)(=O)=O)c3)n2)cc(OC)c1OC" > 6.06

New cases:
Report pIC50, nothing else, for this compound: "COc1cc(Nc2ncnc(Nc3ccc(N(C)C(C)=O)cc3)n2)cc(OC)c1OC" 5.25 to 6.03

Please list pIC50 recorded for the compound "Nc1nc2ccccc2n1-c1ncnc(Nc2cccc(-c3cnco3)c2)n1" > 5.97
